Data origin: the supplement of paper PMC4862054

# Tested on: BT-474
# cond: 72 h
measure_name: EC50, CellTiter-Glo (µM)

(1) O=C(/C=C/c1cccnc1)NCCCCC1CCN(C(=O)c2ccccc2)CC1 [Daporinad]
(2) O=C(Cc1ccc(-c2ccc(OCCN3CCOCC3)cc2)cn1)NCc1ccccc1 [KX2-391]
// query Of 1 and 2 , which carries the smaller reported EC50, CellTiter-Glo figure? Answer with the label corresponding to your selection.
// result 1
(1: 0.0408 µM, 2: 0.07 µM)

----------
drug sensitivity score values, listed per item
# Tested on: CAL-51
# procedure_text: drug sensitivity score (DSS), CellTox Green (DSS (AUC-based score)); higher = stronger drug effect (viability inhibition or cytotoxicity); extreme values may be limits of the assay
# cond: incubation time: 72 h
Format: numeric value only, no unit, no commentary.

molecule	experimental_target	measured_value
CC[C@H](C)C(=O)O[C@H]1C[C@H](O)C=C2C=C[C@H](C)[C@H](CC[C@@H](O)C[C@@H](O)CC(=O)O)[C@H]21	CAL-51	5.33

// query # lookup: drug sensitivity score of COc1cc([C@@H]2c3cc4c(cc3[C@@H](O[C@@H]3O[C@@H]5CO[C@@H](c6cccs6)O[C@H]5[C@H](O)[C@H]3O)[C@H]3COC(=O)[C@H]23)OCO4)cc(OC)c1O [Teniposide]
// result 11.8

// query What value of measured drug sensitivity score is listed for Oc1ncc(N(CCCl)CCCl)c(O)n1 ?
// result 0

// query Given the molecule CNC(=O)c1cc(Oc2ccc(NC(=O)Nc3cc(C(C)(C)C)nn3-c3ccc4ncccc4c3)c(F)c2)ccn1 , what is its reported drug sensitivity score?
// result 0

// query Need drug sensitivity score, item C[C@H]1C[C@@H]2[C@H]([C@@H](O)C[C@@]3(C)[C@H]2CC[C@]3(O)C(=O)CO)[C@@]2(C)C=CC(=O)C=C12
// result 0
